- TARGET_OR_TEST_SYSTEM: S100B (Homo sapiens, UniProt P04271)
- Construct: made in house; host or cells: Escherichia coli BL21(DE3)
- Sequence (P04271 whole entry): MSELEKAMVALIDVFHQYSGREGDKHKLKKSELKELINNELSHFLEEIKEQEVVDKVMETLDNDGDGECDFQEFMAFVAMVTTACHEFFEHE
- METHOD_NOTES: Pull-down assay with immobilized protein and LSM libraries
- Format: binding
- CONDITION_PARAMETERS: H12 library; 1:1 binding assumed; read-out: Surface mapping KD (apparent)
pKd: −log10 of the molar value.
METRIC: pKd

A = NC(=O)CC[C@@H](CC(=O)N[C@H]1CCC[C@@H]1C(=O)N[C@H]1CCC[C@@H]1C(N)=O)NC(=O)[C@H]1CCC[C@@H]1NC(=O)[C@H]1CCC[C@@H]1NC(=O)C[C@H](Cc1ccccc1)NC(=O)[C@H]1CCC[C@@H]1NC(=O)[C@H]1CCC[C@@H]1N [H12 FQ]
B = NC(=O)[C@H]1CCC[C@@H]1NC(=O)[C@H]1CCC[C@@H]1NC(=O)C[C@H](CO)NC(=O)[C@H]1CCC[C@@H]1NC(=O)[C@H]1CCC[C@@H]1NC(=O)C[C@H](Cc1ccc(O)cc1)NC(=O)[C@H]1CCC[C@@H]1NC(=O)[C@H]1CCC[C@@H]1N [H12 YS]
Hello, I am sorting some records. Could you say if A or B has the smaller pKd value? Field: selected label. Fill in the label of the entry you choose.
B
(B: 3.71, A: 3.98)

Data credit: paper PMC8162404
